system_under_test: Polyamine deacetylase HDAC10 (Homo sapiens, UniProt Q969S8)
Sequence (Q969S8 whole entry): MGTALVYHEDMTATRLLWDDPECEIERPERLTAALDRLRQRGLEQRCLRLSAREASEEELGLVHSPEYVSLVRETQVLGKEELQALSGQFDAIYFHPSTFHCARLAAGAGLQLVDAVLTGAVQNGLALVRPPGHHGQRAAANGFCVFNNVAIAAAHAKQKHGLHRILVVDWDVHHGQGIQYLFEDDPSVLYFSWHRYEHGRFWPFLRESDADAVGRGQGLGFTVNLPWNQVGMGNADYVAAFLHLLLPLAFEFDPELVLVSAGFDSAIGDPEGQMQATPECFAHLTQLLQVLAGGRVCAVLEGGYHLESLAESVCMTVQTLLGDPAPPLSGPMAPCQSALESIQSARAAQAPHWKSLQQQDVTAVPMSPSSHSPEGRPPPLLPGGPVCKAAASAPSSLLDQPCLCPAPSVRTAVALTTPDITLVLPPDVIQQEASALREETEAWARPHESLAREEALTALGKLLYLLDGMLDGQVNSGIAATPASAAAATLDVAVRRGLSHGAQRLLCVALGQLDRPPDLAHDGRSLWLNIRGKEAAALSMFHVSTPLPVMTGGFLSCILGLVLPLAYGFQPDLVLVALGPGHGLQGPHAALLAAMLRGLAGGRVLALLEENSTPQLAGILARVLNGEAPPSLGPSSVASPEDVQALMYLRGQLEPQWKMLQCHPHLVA
method: Inhibition of human recombinant HDAC10 using fluorophore-conjugated substrate Boc-L-Lys(Ac)-AMC after 60 mins
Listed below: pIC50 values for each entry.
Schema: pIC50 number; meaning minus log10 of the concentration expressed in molar units.

Request: Identify the reported pIC50 for the following entry. [N-]=[N+]=NCc1cc(Cn2cc(NC(=O)CCCCCCC(=O)NO)cn2)cc(N=[N+]=[N-])c1
Result: 6.85

Request: Identify the reported pIC50 for the following entry. [N-]=[N+]=NCc1cc(N=[N+]=[N-])cc(C(=O)Nc2ccc(-c3cc(C(=O)NCCCCCCC(=O)NO)no3)cc2)c1
Result: 6.11

###

system_under_test: Histone deacetylase 3/Nuclear receptor corepressor 2 (HDAC3/NCoR2) (Homo sapiens, UniProt O15379)
Sequence (O15379 whole entry): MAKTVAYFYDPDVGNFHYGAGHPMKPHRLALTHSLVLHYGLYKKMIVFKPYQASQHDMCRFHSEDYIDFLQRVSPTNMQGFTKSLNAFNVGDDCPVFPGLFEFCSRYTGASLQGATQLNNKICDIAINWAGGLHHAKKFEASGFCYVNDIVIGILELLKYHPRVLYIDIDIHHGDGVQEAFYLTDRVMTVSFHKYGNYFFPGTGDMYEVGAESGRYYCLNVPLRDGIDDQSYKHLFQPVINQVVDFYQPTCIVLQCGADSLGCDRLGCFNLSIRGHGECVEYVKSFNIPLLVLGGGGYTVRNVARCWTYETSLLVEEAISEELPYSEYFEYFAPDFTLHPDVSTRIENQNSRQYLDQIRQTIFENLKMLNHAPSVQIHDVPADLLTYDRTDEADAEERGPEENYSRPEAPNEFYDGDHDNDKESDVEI
Sequence (Q9Y618 whole entry, further chain): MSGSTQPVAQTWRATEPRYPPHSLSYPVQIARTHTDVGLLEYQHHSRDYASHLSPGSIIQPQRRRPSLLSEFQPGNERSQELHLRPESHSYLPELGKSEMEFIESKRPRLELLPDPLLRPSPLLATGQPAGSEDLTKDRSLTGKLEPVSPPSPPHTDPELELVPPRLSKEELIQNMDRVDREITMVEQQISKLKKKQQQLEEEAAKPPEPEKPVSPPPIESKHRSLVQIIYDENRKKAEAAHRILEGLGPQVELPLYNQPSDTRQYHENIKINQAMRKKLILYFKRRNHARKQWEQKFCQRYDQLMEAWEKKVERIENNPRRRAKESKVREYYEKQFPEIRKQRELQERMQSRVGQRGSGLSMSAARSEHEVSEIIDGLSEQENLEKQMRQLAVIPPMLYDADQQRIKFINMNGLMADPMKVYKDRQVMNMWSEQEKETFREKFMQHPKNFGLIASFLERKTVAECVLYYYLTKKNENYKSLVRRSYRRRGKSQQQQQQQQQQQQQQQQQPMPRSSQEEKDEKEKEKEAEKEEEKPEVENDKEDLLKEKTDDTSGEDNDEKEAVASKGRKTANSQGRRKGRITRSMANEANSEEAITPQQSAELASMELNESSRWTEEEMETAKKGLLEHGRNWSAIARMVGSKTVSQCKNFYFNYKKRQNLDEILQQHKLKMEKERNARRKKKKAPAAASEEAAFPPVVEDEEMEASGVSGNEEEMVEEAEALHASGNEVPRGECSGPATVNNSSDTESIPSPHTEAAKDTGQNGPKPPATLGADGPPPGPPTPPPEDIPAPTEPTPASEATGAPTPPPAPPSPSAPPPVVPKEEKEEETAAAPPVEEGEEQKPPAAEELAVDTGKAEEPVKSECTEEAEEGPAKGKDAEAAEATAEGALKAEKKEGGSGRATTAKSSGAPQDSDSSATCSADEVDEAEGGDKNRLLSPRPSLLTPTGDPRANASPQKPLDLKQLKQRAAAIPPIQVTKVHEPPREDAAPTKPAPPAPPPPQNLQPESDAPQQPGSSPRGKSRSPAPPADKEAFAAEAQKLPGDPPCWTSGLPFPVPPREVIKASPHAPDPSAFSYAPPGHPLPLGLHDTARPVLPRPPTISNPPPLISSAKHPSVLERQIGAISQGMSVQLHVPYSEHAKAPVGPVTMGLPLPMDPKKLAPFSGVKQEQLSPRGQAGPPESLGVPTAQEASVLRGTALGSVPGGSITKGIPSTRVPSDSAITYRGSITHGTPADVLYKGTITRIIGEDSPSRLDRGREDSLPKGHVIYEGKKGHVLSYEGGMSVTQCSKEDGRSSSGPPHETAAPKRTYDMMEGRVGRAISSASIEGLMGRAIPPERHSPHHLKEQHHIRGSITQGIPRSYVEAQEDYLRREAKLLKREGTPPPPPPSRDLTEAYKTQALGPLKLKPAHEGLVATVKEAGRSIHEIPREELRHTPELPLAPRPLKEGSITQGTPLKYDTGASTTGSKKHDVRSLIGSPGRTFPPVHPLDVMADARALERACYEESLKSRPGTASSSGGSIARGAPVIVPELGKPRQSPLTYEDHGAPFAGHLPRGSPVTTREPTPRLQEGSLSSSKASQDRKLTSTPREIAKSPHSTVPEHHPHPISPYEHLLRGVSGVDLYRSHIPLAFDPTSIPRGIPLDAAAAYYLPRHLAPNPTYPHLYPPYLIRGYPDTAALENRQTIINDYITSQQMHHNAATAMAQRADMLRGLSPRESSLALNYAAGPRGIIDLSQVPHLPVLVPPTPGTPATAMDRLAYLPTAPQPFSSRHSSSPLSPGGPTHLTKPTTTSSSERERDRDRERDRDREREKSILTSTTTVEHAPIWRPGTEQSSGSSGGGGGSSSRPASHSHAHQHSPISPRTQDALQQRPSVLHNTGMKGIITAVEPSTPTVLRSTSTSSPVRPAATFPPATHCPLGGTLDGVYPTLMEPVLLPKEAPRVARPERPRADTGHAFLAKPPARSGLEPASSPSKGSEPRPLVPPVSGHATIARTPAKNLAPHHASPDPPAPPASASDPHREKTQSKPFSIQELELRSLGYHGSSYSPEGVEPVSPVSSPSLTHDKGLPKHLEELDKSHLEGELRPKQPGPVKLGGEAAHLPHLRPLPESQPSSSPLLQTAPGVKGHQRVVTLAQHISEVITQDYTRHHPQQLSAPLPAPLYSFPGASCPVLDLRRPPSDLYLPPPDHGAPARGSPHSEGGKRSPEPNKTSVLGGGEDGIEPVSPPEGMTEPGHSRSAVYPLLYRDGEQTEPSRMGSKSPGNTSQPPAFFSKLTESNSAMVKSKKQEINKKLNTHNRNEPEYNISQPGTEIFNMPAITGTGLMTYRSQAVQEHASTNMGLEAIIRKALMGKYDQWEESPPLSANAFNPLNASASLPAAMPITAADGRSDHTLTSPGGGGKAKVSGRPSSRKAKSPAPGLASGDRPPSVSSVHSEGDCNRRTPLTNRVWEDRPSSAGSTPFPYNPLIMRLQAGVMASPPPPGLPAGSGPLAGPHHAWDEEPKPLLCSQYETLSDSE
method: Inhibition of human recombinant HDAC3/NCoR2 using fluorophore-conjugated substrate Boc-L-Lys(Ac)-AMC
Listed below: IC50 values for each entry.
Kindly provide the numeric value in µM only, without the unit symbol.

Observe how each entry below is paired with its result.
sample_smiles | observable | recorded_result
[N-]=[N+]=NCc1cc(COc2ccc(NC(=O)CCCCCCC(=O)NO)cc2)cc(N=[N+]=[N-])c1 | IC50 | 1.48
[N-]=[N+]=NCc1cc(N=[N+]=[N-])cc(C(=O)Nc2ccc(-c3cc(C(=O)NCCCCCCC(=O)NO)no3)cc2)c1 | IC50 | 0.045
[N-]=[N+]=Nc1ccc(-c2cc(C(=O)NCCCCCCC(=O)NO)no2)cc1 | IC50 | 0.073

Request: Identify the reported IC50 for the following entry. CC(C)(C)OC(=O)Nc1ccc(Cn2cc(NC(=O)CCCCCCC(=O)NO)cn2)cc1
Result: 0.191

###

Tested on: SH-SY5Y
method: cells
Type: functional, cell-based
applied_conditions: Homo sapiens, 72 h
Listed below: EC50 values for each entry.
Kindly provide the numeric value in µM only, without the unit symbol.

sample_smiles | EC50 / µM
O=C(CCCCCCC(=O)Nc1cnn(Cc2ccccc2)c1)NO | 23.2

Request: Identify the reported EC50 for the following entry. [N-]=[N+]=Nc1ccc(Cn2cc(NC(=O)CCCCCCC(=O)NO)cn2)cc1
Result: 23.1

Request: Identify the reported EC50 for the following entry. [N-]=[N+]=NCc1cc(Cn2cc(NC(=O)CCCCCCC(=O)NO)cn2)cc(N=[N+]=[N-])c1
Result: 20.8

Request: Identify the reported EC50 for the following entry. [N-]=[N+]=NCc1cc(N=[N+]=[N-])cc(C(=O)Nc2ccc(-c3cc(C(=O)NCCCCCCC(=O)NO)no3)cc2)c1
Result: 23
